Please provide measured MIC for the entries that follow.
- Tested on: Methicilin resistant Staphylococcus epidermidis 118 (MRSE 118)
- Test Description: Minimum Inhibitory Concentration (MIC) determination, agar dilution
- Format: cell-based
- Measurement Setup: Mueller Hinton agar, 24 hrs at 35° C.
One number for each entry, in µg/mL.

Some molecules with known MIC results, for comparison:
CC(=O)NC[C@H]1CN(c2ccc(N3CCC4(OCCO4)C(F)C3)c(F)c2)C(=O)O1 (stereo partly shown)    2
CC(=O)NC[C@H]1CN(c2ccc(N3CCC4(CC3)CC4C#N)cc2)C(=O)O1 (mixture of isomers)    2
CS(=O)(=O)OC[C@H]1CN(c2cc(F)c(N3CCC(O)CC3)c(F)c2)C(=O)O1    2
CC(=O)NC[C@H]1CN(c2ccc(N3CCC4(CC3)SCCN4C)c(F)c2)C(=O)O1    1
COCC1(O)CCN(c2ccc(N3C[C@H](CNC(C)=O)OC3=O)cc2F)CC1    4
CC(=O)NC[C@H]1CN(c2ccc(N3CCC4(CC3)COCCCO4)c(F)c2)C(=O)O1    2

Go through the list and state MIC for each entry.
1. CS(=O)(=O)OC[C@H]1CN(c2ccc(N3CCC(=O)CC3)c(F)c2)C(=O)O1
2. CS(=O)(=O)OC[C@H]1CN(c2cc(F)c(N3CCC(=O)CC3)c(F)c2)C(=O)O1
3. CC(=O)NC[C@H]1CN(c2ccc(N3CCC(F)(CC#N)CC3)c(F)c2)C(=O)O1
4. CC(=O)NC[C@H]1CN(c2ccc(N3CCC4(CC3)C[C@@H]4C#N)c(F)c2)C(=O)O1
5. CC(=O)NC[C@H]1CN(c2ccc(N3CCC(C)(F)CC3)c(F)c2)C(=O)O1

2
0.25
0.5
1
2

Quick request: MIC for each listed item, please.
1. CC(=O)NC[C@H]1CN(c2ccc(N3CCOCC3)c(F)c2)C(=O)O1 [Linezolid, reference compound]
2. CC(=O)NC[C@H]1CN(c2cc(F)c(N3CCC4(CC3)OCCO4)c(F)c2)C(=O)O1
3. CC(=O)NC[C@H]1CN(c2ccc(N3CCC(O)(CN=[N+]=[N-])CC3)cc2)C(=O)O1
4. CS(=O)(=O)OC[C@H]1CN(c2ccc(N3CCC(O)CC3)c(F)c2)C(=O)O1
5. CS(=O)(=O)OC[C@H]1CN(c2ccc(N3CCC4(CC3)COCO4)c(F)c2)C(=O)O1

[1, 2, 2, 8, 4]

Count: 3. Required value per item: MIC.
1. CC(=O)NC[C@H]1CN(c2ccc(N3CCC(F)(COS(C)(=O)=O)CC3)c(F)c2)C(=O)O1
2. C=CCC1(O)CCN(c2ccc(N3C[C@H](COS(C)(=O)=O)OC3=O)cc2F)CC1
3. CC(=O)NC[C@H]1CN(c2ccc(N3CCC4(CC3)COCCO4)c(F)c2)C(=O)O1

1. 0.5
2. 8
3. 1

Report MIC for each item below.
1. CC(=S)NC[C@H]1CN(c2ccc(N3CCC(C#N)(Nc4ccc(C#N)cc4)CC3)c(F)c2)C(=O)O1
2. CC(=O)NC[C@H]1CN(c2ccc(N3CCC(F)(CN=[N+]=[N-])CC3)c(F)c2)C(=O)O1
3. CS(=O)(=O)OC[C@H]1CN(c2cc(F)c(N3CCC4(CC3)OCCO4)c(F)c2)C(=O)O1

[0.5, 1, 2]
